biological target: Acetylcholinesterase (Electrophorus electricus, UniProt O42275)
Sequence (O42275 whole entry): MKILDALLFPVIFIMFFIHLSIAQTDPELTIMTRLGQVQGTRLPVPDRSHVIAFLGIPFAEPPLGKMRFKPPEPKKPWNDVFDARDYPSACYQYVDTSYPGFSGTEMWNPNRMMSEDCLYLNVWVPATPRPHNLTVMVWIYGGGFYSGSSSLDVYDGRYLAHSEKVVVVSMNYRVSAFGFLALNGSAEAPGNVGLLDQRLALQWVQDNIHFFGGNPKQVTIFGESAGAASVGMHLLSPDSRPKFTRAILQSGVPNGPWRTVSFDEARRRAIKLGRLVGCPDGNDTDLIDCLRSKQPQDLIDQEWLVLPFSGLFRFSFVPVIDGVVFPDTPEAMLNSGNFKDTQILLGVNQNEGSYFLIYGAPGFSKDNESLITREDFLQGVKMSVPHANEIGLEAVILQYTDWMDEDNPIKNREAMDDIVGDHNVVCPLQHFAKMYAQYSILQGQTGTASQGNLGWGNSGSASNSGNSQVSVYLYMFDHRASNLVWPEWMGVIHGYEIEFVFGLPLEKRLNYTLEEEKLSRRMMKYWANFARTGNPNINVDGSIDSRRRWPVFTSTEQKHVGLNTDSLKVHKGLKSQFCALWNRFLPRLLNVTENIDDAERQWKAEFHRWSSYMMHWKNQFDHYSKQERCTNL
measured.quantity: IC50
# output: numeric value plus its unit

Prompt: Requested field: IC50. Item: C#CCN(C)c1nc(NCCCCC2CCN(Cc3ccccc3)CC2)c(C#N)cc1C#N
Completion: 1.1 nM

* * *

molecular target: Acetylcholinesterase (Electrophorus electricus, UniProt O42275)
pIC50: −log10 of the molar value.
The threshold is inclusive: pIC50 of exactly 7 counts as criterion met; values below receive criterion not met.

Prompt: Could you tell me if the measured pIC50 of Nc1c2c(nc3cc(Cl)ccc13)CCCC2 reaches 7 or more?
Completion: criterion met

Prompt: Textbook exercise: given the entry C#CCNCCNc1c2c(nc3ccccc13)CCCC2 , state whether its pIC50 is greater than or equal to 7.
Completion: criterion not met

Prompt: Item C#CCN(CC#C)c1c2c(nc3cc(Cl)ccc13)CCCC2 with pIC50 of 7 or above?
Completion: criterion not met

Prompt: Hi team, for C#CCNc1c2c(nc3cc(Cl)ccc13)CCCC2 , is the recorded pIC50 at or above 7?
Completion: criterion met

Prompt: Quick check: does C#CCN(CC#C)CCNc1c2c(nc3ccccc13)CCCC2 have pIC50 greater than or equal to 7?
Completion: criterion not met
